- system_tested: cIAP2-BIR3 (Homo sapiens (Human))
- Sequence (Q13489 238-349): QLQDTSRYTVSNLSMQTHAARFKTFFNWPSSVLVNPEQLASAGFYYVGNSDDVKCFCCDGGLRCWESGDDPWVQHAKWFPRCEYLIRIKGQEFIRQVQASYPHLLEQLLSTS
- experiment_description: BIR binding assay (FRET competition), cIAP2 BIR3
pIC50: −log10 of the molar value.
pIC50 overview

Illustrative cases are given below, each with its answer.
C[C@@H]1CN(CC(=O)N2CC(C)(C)c3[nH]c(=O)c(Cc4ccc(F)cc4)cc32)[C@@H](CN2CCO[C@H](COCC#CC#CCOC[C@@H]3CN(C[C@H]4CN[C@H](C)CN4CC(=O)N4CC(C)(C)c5[nH]c(=O)c(Cc6ccc(F)cc6)cc54)CCO3)C2)CN1 [Example 63]; 7.50 to 7.80
C[C@@H]1CN(CC(=O)N2CC(C)(C)c3[nH]c(=O)c(Cc4ccc(F)cc4)cc32)[C@@H](CN2CCO[C@H](COCc3cccc(COC[C@@H]4CN(C[C@H]5CN[C@H](C)CN5CC(=O)N5CC(C)(C)c6[nH]c(=O)c(Cc7ccc(F)cc7)cc65)CCO4)n3)C2)CN1 [Example 84]; 7.80 to 8.10
C[C@@H]1CN(CC(=O)N2CC(C)(C)c3[nH]c(=O)c(Cc4ccc(F)cc4)cc32)[C@@H](CN2CCO[C@H](COCc3cccc(COC[C@@H]4CN(C[C@H]5CN[C@H](C)CN5CC(=O)N5CC(C)(C)c6[nH]c(=O)c(Cc7ccc(F)cc7)cc65)CCO4)c3)C2)CN1 [Example 80]; 8.10 to 8.86
C[C@@H]1CN(CC(=O)N2CC(C)(C)c3[nH]c(=O)c(Cc4ccc(F)cc4)cc32)[C@@H](CN2CCO[C@H](COc3ccccc3Oc3ccccc3OC[C@@H]3CN(C[C@H]4CN[C@H](C)CN4CC(=O)N4CC(C)(C)c5[nH]c(=O)c(Cc6ccc(F)cc6)cc54)CCO3)C2)CN1 [Example 68]; 7.80 to 8.10

Query: For the compound shown here, C[C@@H]1CN(CC(=O)N2CC(C)(C)c3[nH]c(=O)c(Cc4ccc(F)cc4)cc32)[C@@H](CN2CCO[C@H](COc3ccc(C(=O)C(=O)c4ccc(OC[C@@H]5CN(C[C@H]6CN[C@H](C)CN6CC(=O)N6CC(C)(C)c7[nH]c(=O)c(Cc8ccc(F)cc8)cc76)CCO5)cc4)cc3)C2)CN1 [Example 59] , give the reported pIC50.
Reply: 7.80 to 8.10

Query: // same read-out, input: C[C@@H]1CN(CC(=O)N2CC(C)(C)c3ncc(Cc4ccc(F)cc4)cc32)[C@@H](CN2CCO[C@H](COc3cccc(OC[C@@H]4CN(C[C@H]5CN[C@H](C)CN5CC(=O)N5CC(C)(C)c6ncc(Cc7ccc(F)cc7)cc65)CCO4)c3)C2)CN1 [Compound 145]
Reply: 7.80 to 8.10

Query: // same read-out, input: C[C@@H]1CN(CC(=O)N2CC(C)(C)c3ncc(Cc4ccc(Br)cc4)cc32)[C@@H](CN2CCO[C@H](COc3cccc(OC[C@@H]4CN(C[C@H]5CN[C@H](C)CN5CC(=O)N5CC(C)(C)c6ncc(Cc7ccc(Br)cc7)cc65)CCO4)c3)C2)CN1 [Compound 153]
Reply: 6.30 to 7.50

Query: // same read-out, input: C[C@@H]1CN(CC(=O)N2CC(C)(C)c3[nH]c(=O)c(Cc4ccccc4)cc32)[C@@H](CN2CCO[C@H](C(=O)NCc3ccc(CNC(=O)[C@@H]4CN(C[C@H]5CN[C@H](C)CN5CC(=O)N5CC(C)(C)c6[nH]c(=O)c(Cc7ccccc7)cc65)CCO4)cc3)C2)CN1 [Compound 186]
Reply: 8.10 to 8.86

Query: // same read-out, input: C[C@@H]1CN(CC(=O)N2CC(C)(C)c3[nH]c(=O)c(Cc4ccc(F)cc4)cc32)[C@@H](CN2CCC[C@H](NC(=O)Cc3cccc(CC(=O)N[C@H]4CCCN(C[C@H]5CN[C@H](C)CN5CC(=O)N5CC(C)(C)c6[nH]c(=O)c(Cc7ccc(F)cc7)cc65)C4)c3)C2)CN1 [Example 41]
Reply: 6.30 to 7.50

Query: // same read-out, input: C[C@@H]1CN(CC(=O)N2CC(C)(C)c3[nH]c(=O)c(Cc4ccc(F)cc4)cc32)[C@@H](CN2CCO[C@H](C(=O)N3CCCN(C(=O)[C@@H]4CN(C[C@H]5CN[C@H](C)CN5CC(=O)N5CC(C)(C)c6[nH]c(=O)c(Cc7ccc(F)cc7)cc65)CCO4)CC3)C2)CN1 [Example 131]
Reply: 7.80 to 8.10

Query: // same read-out, input: C[C@@H]1CN(CC(=O)N2CC(C)(C)c3[nH]c(=O)c(Cc4ccc(F)cc4)cc32)[C@@H](CN2CCO[C@H](COc3ccc(S(=O)(=O)c4ccc(OC[C@@H]5CN(C[C@H]6CN[C@H](C)CN6CC(=O)N6CC(C)(C)c7[nH]c(=O)c(Cc8ccc(F)cc8)cc76)CCO5)cc4)cc3)C2)CN1 [Example 57]
Reply: 7.50 to 7.80

Query: // same read-out, input: COC(=O)c1cc(F)ccc1Cc1cnc2c(c1)N(C(=O)CN1C[C@@H](C)NC[C@@H]1CN1CCO[C@H](COc3cccc(OC[C@@H]4CN(C[C@H]5CN[C@H](C)CN5CC(=O)N5CC(C)(C)c6ncc(Cc7ccc(F)cc7C(=O)OC)cc65)CCO4)c3)C1)CC2(C)C [Compound 152]
Reply: 7.80 to 8.10

Query: // same read-out, input: C[C@@H]1CN(CC(=O)N2CC(C)(C)c3[nH]c(=O)c(Cc4ccc(F)cc4)cc32)[C@@H](CN2CCC(CC(=O)NCc3ccc(CNC(=O)CC4CCN(C[C@H]5CN[C@H](C)CN5CC(=O)N5CC(C)(C)c6[nH]c(=O)c(Cc7ccc(F)cc7)cc65)CC4)cc3)CC2)CN1 [Example 105]
Reply: 7.80 to 8.10

Query: // same read-out, input: C[C@@H]1CN(CC(=O)N2CC(C)(C)c3[nH]c(=O)c(Cc4ccc(F)cc4)cc32)[C@@H](CN2CCO[C@H](C(=O)NCC(O)CNC(=O)[C@@H]3CN(C[C@H]4CN[C@H](C)CN4CC(=O)N4CC(C)(C)c5[nH]c(=O)c(Cc6ccc(F)cc6)cc54)CCO3)C2)CN1 [Compound 137]
Reply: 7.80 to 8.10

====

- system_tested: cIAP1-BIR2 (Homo sapiens (Human))
- Sequence (Q13490 173-257): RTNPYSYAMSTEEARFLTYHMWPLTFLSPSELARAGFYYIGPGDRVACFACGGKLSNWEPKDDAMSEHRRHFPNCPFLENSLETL
- experiment_description: BIR binding assay (FRET competition), cIAP1 BIR2
pIC50: −log10 of the molar value.
pIC50 overview

Illustrative cases are given below, each with its answer.
C[C@@H]1CN(CC(=O)N2CC(C)(C)c3[nH]c(=O)c(Cc4ccc(F)cc4)cc32)[C@@H](CN2CCN(C(=O)CCCCCCCCC(=O)N3CCN(C[C@H]4CN[C@H](C)CN4CC(=O)N4CC(C)(C)c5[nH]c(=O)c(Cc6ccc(F)cc6)cc54)[C@H](C)C3)C[C@H]2C)CN1; 6.00 to 7.65
C[C@@H]1CN(CC(=O)N2CC(C)(C)c3ncc(Cc4ccc(Br)cc4)cc32)[C@@H](CN2CCO[C@H](COc3cccc(OC[C@@H]4CN(C[C@H]5CN[C@H](C)CN5CC(=O)N5CC(C)(C)c6ncc(Cc7ccc(Br)cc7)cc65)CCO4)c3)C2)CN1; 4.29 to 5.00
C[C@@H]1CN(CC(=O)N2CC(C)(C)c3ncc(N(C)c4ccc(F)cc4)cc32)[C@@H](CN2CCO[C@H](COc3cccc(OC[C@@H]4CN(C[C@H]5CN[C@H](C)CN5CC(=O)N5CC(C)(C)c6ncc(N(C)c7ccc(F)cc7)cc65)CCO4)c3)C2)CN1; 4.29 to 5.00
C[C@@H]1CN(CC(=O)N2CC(C)(C)c3[nH]c(=O)c(Cc4ccc(F)cc4)cc32)[C@@H](CN2CCN(Cc3cn(CC(=O)N4CCN(C[C@H]5CN[C@H](C)CN5CC(=O)N5CC(C)(C)c6[nH]c(=O)c(Cc7ccc(F)cc7)cc65)[C@H](C)C4)nn3)C[C@H]2C)CN1; 5.50 to 6.00
C[C@@H]1CN(CC(=O)N2CC(C)(C)c3[nH]c(=O)c(Cc4ccc(Cl)cc4C(=O)N(C)C)cc32)[C@@H](CN2CCO[C@H](C(=O)NCc3ccc(CNC(=O)[C@@H]4CN(C[C@H]5CN[C@H](C)CN5CC(=O)N5CC(C)(C)c6[nH]c(=O)c(Cc7ccc(Cl)cc7C(=O)N(C)C)cc65)CCO4)cc3)C2)CN1; 4.29 to 5.00

Query: For the compound shown here, C[C@@H]1CN(CC(=O)N2CC(C)(C)c3[nH]c(=O)c(Cc4ccc(F)cc4)cc32)[C@@H](CN2CCC[C@@H](NC(=O)CCCCCCCCCCCCC(=O)N[C@@H]3CCCN(C[C@H]4CN[C@H](C)CN4CC(=O)N4CC(C)(C)c5[nH]c(=O)c(Cc6ccc(F)cc6)cc54)C3)C2)CN1 , give the reported pIC50.
Reply: 5.00 to 5.50

Query: // same read-out, input: C[C@@H]1CN(CC(=O)N2CC(C)(C)c3[nH]c(=O)c(Cc4ccc(F)cc4)cc32)[C@@H](CN2CCN(C(=O)CN(C)CC(=O)N3CCN(C[C@H]4CN[C@H](C)CN4CC(=O)N4CC(C)(C)c5[nH]c(=O)c(Cc6ccc(F)cc6)cc54)[C@H](C)C3)C[C@H]2C)CN1
Reply: 6.00 to 7.65

Query: // same read-out, input: COc1cc(F)ccc1Cc1cnc2c(c1)N(C(=O)CN1C[C@@H](C)NC[C@@H]1CN1CCO[C@H](COc3cccc(OC[C@@H]4CN(C[C@H]5CN[C@H](C)CN5CC(=O)N5CC(C)(C)c6ncc(Cc7ccc(F)cc7OC)cc65)CCO4)c3)C1)CC2(C)C
Reply: 5.00 to 5.50

Query: // same read-out, input: Cc1ccc(Oc2cc3c([nH]c2=O)C(C)(C)CN3C(=O)CN2C[C@@H](C)NC[C@@H]2CN2CCO[C@H](C(=O)NCc3ccc(CNC(=O)[C@@H]4CN(C[C@H]5CN[C@H](C)CN5CC(=O)N5CC(C)(C)c6[nH]c(=O)c(Oc7ccc(C)cc7)cc65)CCO4)cc3)C2)cc1
Reply: 5.00 to 5.50

Query: // same read-out, input: C[C@@H]1CN(CC(=O)N2CC(C)(C)c3[nH]c(=O)c(Cc4ccc(F)cc4)cc32)[C@@H](CN2CCO[C@H](COCc3cccc(COC[C@@H]4CN(C[C@H]5CN[C@H](C)CN5CC(=O)N5CC(C)(C)c6[nH]c(=O)c(Cc7ccc(F)cc7)cc65)CCO4)c3)C2)CN1
Reply: 5.50 to 6.00
